test: in vivo
conditions: Sprague-Dawley, rat, iv, 1 mg/kg
assay-endpoint: AUC(0-t) at 12 h (µg·h/mL)

| input-smiles | test-value |
| --- | --- |
| CC#CC(=O)N1CCC(c2cnn3c(C(N)=O)c(-c4ccc(Oc5ccccc5)cc4)[nH]c23)CC1 | 0.18 |

====

test: in vivo
conditions: Sprague-Dawley, rat, iv, 1 mg/kg
assay-endpoint: Tmax at 12 h (min)

| input-smiles | assay-endpoint | test-value |
| --- | --- | --- |
| CC#CC(=O)N1CCC(c2cnn3c(C(N)=O)c(-c4ccc(Oc5ccccc5)cc4)[nH]c23)CC1 | Tmax at 12 h | 1.98 |

====

test: in vivo
conditions: Sprague-Dawley, rat, po, 10 mg/kg
assay-endpoint: bioavailability at 24 h (%)

| input-smiles | test-value |
| --- | --- |
| CC#CC(=O)N1CCC(c2cnn3c(C(N)=O)c(-c4ccc(Oc5ccccc5)cc4)[nH]c23)CC1 | 10.8 |

====

test: in vivo
conditions: Sprague-Dawley, rat, po, 10 mg/kg
assay-endpoint: half-life at 24 h (h)

| input-smiles | test-value |
| --- | --- |
| CC#CC(=O)N1CCC(c2cnn3c(C(N)=O)c(-c4ccc(Oc5ccccc5)cc4)[nH]c23)CC1 | 5.98 |

====

test: in vivo
conditions: Sprague-Dawley, rat, po, 10 mg/kg

| input-smiles | MRT last at 24 h / h |
| --- | --- |
| CC#CC(=O)N1CCC(c2cnn3c(C(N)=O)c(-c4ccc(Oc5ccccc5)cc4)[nH]c23)CC1 | 10.2 |

====

test: in vivo
conditions: Sprague-Dawley, rat, po, 10 mg/kg

| input-smiles | unit-abbrev | CL/F at 24 h |
| --- | --- | --- |
| CC#CC(=O)N1CCC(c2cnn3c(C(N)=O)c(-c4ccc(Oc5ccccc5)cc4)[nH]c23)CC1 | mL/min/kg | 786 |

====

test: in vivo
conditions: Sprague-Dawley, rat, iv, 1 mg/kg

| input-smiles | Cmax at 12 h |
| --- | --- |
| CC#CC(=O)N1CCC(c2cnn3c(C(N)=O)c(-c4ccc(Oc5ccccc5)cc4)[nH]c23)CC1 | 537 ng/mL |

====

test: in vivo
conditions: Sprague-Dawley, rat, po, 10 mg/kg

| input-smiles | AUC(0-inf) at 24 h / ng·h/mL |
| --- | --- |
| CC#CC(=O)N1CCC(c2cnn3c(C(N)=O)c(-c4ccc(Oc5ccccc5)cc4)[nH]c23)CC1 | 213 |

====

test: in vivo
conditions: Sprague-Dawley, rat, po, 10 mg/kg

| input-smiles | unit-abbrev | Cmax at 24 h |
| --- | --- | --- |
| CC#CC(=O)N1CCC(c2cnn3c(C(N)=O)c(-c4ccc(Oc5ccccc5)cc4)[nH]c23)CC1 | ng/mL | 16 |
